Listed below: IC50 values for each entry.
- target: Erk2 (Homo sapiens)
- Construct: in some cases as full-length kinases, in some cases as truncated fragments
- Sequence (P28482 whole entry, the tested form may be a part): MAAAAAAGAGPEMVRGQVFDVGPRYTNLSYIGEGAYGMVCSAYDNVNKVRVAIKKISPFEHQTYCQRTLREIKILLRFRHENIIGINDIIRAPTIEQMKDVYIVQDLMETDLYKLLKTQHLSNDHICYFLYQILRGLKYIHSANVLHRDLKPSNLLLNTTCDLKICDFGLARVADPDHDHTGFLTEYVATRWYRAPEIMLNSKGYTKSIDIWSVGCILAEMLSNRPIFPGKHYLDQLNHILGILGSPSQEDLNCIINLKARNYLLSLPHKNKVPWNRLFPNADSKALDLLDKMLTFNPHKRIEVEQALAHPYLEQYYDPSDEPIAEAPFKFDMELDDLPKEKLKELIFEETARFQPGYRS
- protocol.details: Cell-free kinase assay (ALPHA technology), Erk2
- test.parameters: at 10 μM ATP

compound	target	endpoint.value
Cn1cc(-c2cnc3ccc(NC(=O)Nc4ccccc4)nc3c2)cn1 [Compound 27]	Erk2 (Homo sapiens)	0.191 µM
CCNC(=O)Nc1ccnc2cc(-c3cc(Cl)c(O)c(Cl)c3)cnc12 [Compound 15]	Erk2 (Homo sapiens)	> 31.6 µM
Cn1cc(-c2cnc3c(NC(=O)NC4CCCC4)ccnc3c2)cn1 [Compound 34]	Erk2 (Homo sapiens)	4.08 µM
Cn1cc(-c2cnc3c(NC(=O)NC4CCC4)ccnc3c2)cn1 [Compound 17]	Erk2 (Homo sapiens)	> 100 µM
CC(C)NC(=O)Nc1ccnc2cc(-c3cnn(C)c3)cnc12 [Compound 30]	Erk2 (Homo sapiens)	> 100 µM

Which IC50 is reported for this compound? COc1cc(-c2cnc3c(NC(=O)NC4CC4)ccnc3c2)ccc1O [Compound 14]
> 100 µM

Suppose we examine the compound Cn1cc(-c2cnc3c(NC(=O)NC4CCCCC4)ccnc3c2)cn1 [Compound 22] ; what IC50 value has been reported?
> 100 µM

Entry O=C(Nc1ccnc2cc(-c3ccccc3)cnc12)NC1CC1 [Compound 39] has what IC50?
> 100 µM

For the compound shown here, CCNC(=O)Nc1ccnc2cc(-c3cnn(C)c3)cnc12 [Compound 10] , give the reported IC50.
> 100 µM

Any idea what its IC50 is? The compound is Cn1cc(-c2cnc3c(NC(=O)Nc4ccccc4)ccnc3c2)cn1 [Compound 23]
> 100 µM

Given O=C(Nc1ccnc2cc(-c3cnn(CCN4CCOCC4)c3)cnc12)NC1CC1 [Compound 38] , state its recorded IC50.
> 100 µM

Request the reported IC50 associated with COc1ccc(-c2cnc3c(NC(=O)NC(C)(C)C)ccnc3c2)cc1OC [Compound 8]
> 100 µM

What measured IC50 goes with Cn1cc(-c2cnc3ccc(NC(=O)NCCc4ccccc4)nc3c2)cn1 [Compound 5] ?
0.733 µM

Suppose we examine the compound O=C(Nc1ccnc2cc(-c3cn[nH]c3)cnc12)NC1CC1 [Compound 35] ; what IC50 value has been reported?
> 100 µM

====

- target: Aurora-B (Homo sapiens, UniProt Q96GD4)
- Construct: in some cases as full-length kinases, in some cases as truncated fragments; purchased Upstate/Millipore #14-835
- Sequence (Q96GD4 whole entry, the tested form may be a part): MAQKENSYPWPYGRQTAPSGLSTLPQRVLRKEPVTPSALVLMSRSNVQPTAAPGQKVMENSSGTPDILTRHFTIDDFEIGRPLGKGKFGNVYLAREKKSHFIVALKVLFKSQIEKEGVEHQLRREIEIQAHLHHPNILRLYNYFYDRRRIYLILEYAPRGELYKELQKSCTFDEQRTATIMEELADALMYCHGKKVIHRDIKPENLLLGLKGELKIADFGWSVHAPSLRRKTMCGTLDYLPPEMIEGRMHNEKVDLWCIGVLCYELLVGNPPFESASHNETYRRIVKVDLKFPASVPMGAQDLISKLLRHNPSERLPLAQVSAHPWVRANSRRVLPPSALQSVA
- protocol.details: Cell-free kinase assay (ALPHA technology), Aurora-B
- Assay type: biochemical
- test.parameters: at 10 μM ATP; read-out: IC50 Aurora-B
measurement.type: IC50 (nM)

structure.string	u	IC50
Cn1cc(-c2cnc3c(NC(=O)NCC(F)(F)F)ccnc3c2)cn1	nM	129

(P) CC(C)(C)NC(=O)Nc1ccnc2cc(-c3cc(Cl)c(O)c(Cl)c3)cnc12
(Q) Cn1cc(-c2cnc3c(NC(=O)NC4CCCC4)ccnc3c2)cn1
(R) CCNC(=O)Nc1ccc2ncc(-c3ccc(OC)cc3)cc2n1
(S) O=C(Nc1ccnc2cc(-c3cnn(CCN4CCOCC4)c3)cnc12)NC1CC1
Hey, can you sort those compounds up there by IC50, smallest first? Could you list the labels in the order requested?
S, Q, P, R
(S: 28 nM, Q: 108 nM, P: 500 nM, R: 2230 nM)

Where do these numbers come from? They come from patent US8461178B2.
